# Subject of test: CYP2D6 (Homo sapiens)
# Sequence (P10635 whole entry): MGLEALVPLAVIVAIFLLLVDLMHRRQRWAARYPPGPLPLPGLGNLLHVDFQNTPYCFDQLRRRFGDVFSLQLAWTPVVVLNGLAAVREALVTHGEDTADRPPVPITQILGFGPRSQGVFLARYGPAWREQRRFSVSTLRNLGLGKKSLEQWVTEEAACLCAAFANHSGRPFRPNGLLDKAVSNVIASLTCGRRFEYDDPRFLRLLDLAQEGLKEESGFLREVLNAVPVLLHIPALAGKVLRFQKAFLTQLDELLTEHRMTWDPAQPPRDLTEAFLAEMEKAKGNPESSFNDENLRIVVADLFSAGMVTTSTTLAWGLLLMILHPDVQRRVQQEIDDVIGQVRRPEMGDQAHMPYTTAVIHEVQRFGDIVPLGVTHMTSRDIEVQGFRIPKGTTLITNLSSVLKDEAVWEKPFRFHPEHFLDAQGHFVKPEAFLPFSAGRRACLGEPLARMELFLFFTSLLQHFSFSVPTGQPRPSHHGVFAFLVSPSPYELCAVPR
Parameter measured: IC50 (nM)
Use nM as the unit, but write only the number.

O=S(=O)(Nc1ccc(Cc2ccncc2)cc1)c1ccc(OC(F)(F)F)cc1 180
O=C(Nc1ccc(Cc2ccncc2)cc1)[C@H](Cc1c[nH]c2ccccc12)NCc1ccccc1 460

Next compound, please.
Form field IC50, entry "COc1ccc(CNc2ccc(Cc3ccncc3)cc2)cc1" : 330

====

Here, each record is paired with measured Δλmax (nm) CYP126, fragment screen data.
# Subject of test: CYP126 (Mycobacterium tuberculosis)
# Sequence (P9WPN9 whole entry, the tested form may be a part): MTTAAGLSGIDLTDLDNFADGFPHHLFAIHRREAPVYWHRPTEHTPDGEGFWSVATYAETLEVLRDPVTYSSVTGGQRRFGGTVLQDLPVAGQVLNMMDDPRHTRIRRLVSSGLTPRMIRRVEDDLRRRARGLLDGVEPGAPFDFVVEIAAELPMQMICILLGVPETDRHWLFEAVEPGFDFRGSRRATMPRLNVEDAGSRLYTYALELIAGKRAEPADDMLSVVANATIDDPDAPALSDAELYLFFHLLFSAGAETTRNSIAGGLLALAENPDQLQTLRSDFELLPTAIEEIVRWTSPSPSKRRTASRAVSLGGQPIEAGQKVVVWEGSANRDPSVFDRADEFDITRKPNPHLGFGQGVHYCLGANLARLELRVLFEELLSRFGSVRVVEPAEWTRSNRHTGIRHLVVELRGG
# Condition set: fragment 1 mM, P450 4-6 µM; relative to DMSO (418 nm)
Use nm as the unit, but write only the number.

Example molecules with recorded Δλmax (nm) CYP126, fragment screen:
N#Cc1ccccn1 0
NC1=NN(c2ccccc2)C(=O)C1 0
c1ccc(Cc2cccnc2)cc1 1
Clc1cccnc1Cl 0
c1ccc(N2CCOCC2)nc1 0

Form field Δλmax (nm) CYP126, fragment screen, entry "Cn1nc(-c2ccccc2)cc1N" : 0

Form field Δλmax (nm) CYP126, fragment screen, entry "Nc1cccc(Cn2cncn2)c1" : 0

====

# Subject of test: CYP143 (Mycobacterium tuberculosis)
# Sequence (P9WPL3 whole entry, the tested form may be a part): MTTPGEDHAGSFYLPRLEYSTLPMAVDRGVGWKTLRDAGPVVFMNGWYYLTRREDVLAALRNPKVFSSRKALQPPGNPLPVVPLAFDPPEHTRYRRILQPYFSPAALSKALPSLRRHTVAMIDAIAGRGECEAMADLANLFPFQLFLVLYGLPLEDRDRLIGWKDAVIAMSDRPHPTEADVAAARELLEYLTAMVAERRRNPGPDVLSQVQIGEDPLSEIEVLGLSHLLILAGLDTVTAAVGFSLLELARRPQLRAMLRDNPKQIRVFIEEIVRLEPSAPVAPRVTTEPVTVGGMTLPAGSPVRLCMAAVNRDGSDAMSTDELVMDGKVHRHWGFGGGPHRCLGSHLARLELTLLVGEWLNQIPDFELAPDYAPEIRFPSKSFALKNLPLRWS
# Condition set: fragment 1 mM, P450 4-6 µM; relative to DMSO (416 nm)
So basically: is Δλmax (nm) CYP143, fragment screen under 0 nm? Then y. Not under? Then n.

See these solved cases before continuing.
CNCc1ccc(-c2ccncc2)cc1 n
O=c1ccc(Br)c[nH]1 n

# ---- query compound ----
Please state whether Δλmax (nm) CYP143, fragment screen is below 0 nm for "Oc1ccccn1" y

====

# Subject of test: UniProt:P9WPP1
pIC50: −log10 of the molar value.
Kind request: treat 5 as inclusive, so pIC50 at 5 or higher is MET, anything lower is NOT MET.

See these solved cases before continuing.
Compound	Class assignment
O=C(Nc1ccc(Cc2ccncc2)cc1)c1ccccc1 [5a]	MET
O=C(NCc1ccc2[nH]ccc2c1)c1ccc(Cc2ccncc2)cc1 [5f]	MET
COc1ccc(CNc2ccc(Cc3ccncc3)cc2)cc1 [5m]	MET

Say whether COc1ccc(C(C)Nc2ccc(Cc3ccncc3)cc2)cc1 (centres unmarked) [5o] shows pIC50 of 5 or more. MET

Say whether CN(c1ccncc1)c1ccc(NC(=O)c2ccccc2)cc1 [5c] shows pIC50 of 5 or more. NOT MET

Say whether O=C(NCc1ccc2[nH]ccc2c1)c1cccc(Nc2ccncc2)c1 [5g] shows pIC50 of 5 or more. NOT MET

====

# Subject of test: CYP142 (Mycobacterium tuberculosis)
# Method: biochemical
Here, each record is paired with measured pKd data.
Bear in mind: pKd is minus log10 of a mol/L concentration; give just that figure.

Form field pKd, entry "C[C@@H](NC(=O)c1cccc(Cc2ccncc2)c1)c1ccccc1" : 5.48

Form field pKd, entry "CC(=O)Nc1ccc(Cc2ccncc2)cc1" : 5.85

Form field pKd, entry O=C(Nc1ccc(Nc2ccncc2)cc1)c1ccccc1 [5b, N-(4-(Pyridin-4-ylamino)phenyl)benzamide] : 5.55

Form field pKd, entry "O=C(NCc1ccc2[nH]ccc2c1)c1ccc(Cc2ccncc2)cc1" : 5.49

====

# Subject of test: UniProt P9WPL3
# Condition set: fragment 1 mM, P450 4-6 µM; relative to DMSO (416 nm)
Parameter measured: Δλmax (nm) CYP143, fragment screen
Use nm as the unit, but write only the number.

Example molecules with recorded Δλmax (nm) CYP143, fragment screen:
c1ccc(-c2c[nH]cn2)cc1 2
Cc1cc(O)nnc1O 0
OCc1ccc(Cn2cncn2)cc1 0
c1ccc(-c2cc[nH]n2)cc1 1

Next molecule, please.
Form field Δλmax (nm) CYP143, fragment screen, entry "OCc1nccn1Cc1ccccc1" : 1

====

# Test system: Mtb H37Rv
# Method: Depletion of intracellular ATP (BacTiter Glo), Mtb on cholesterol
# Type: cell-based, Mycobacterium tuberculosis
# Condition set: Mycobacterium tuberculosis, H37RV, 336 h, H37Rv; 2 weeks post-compound treatment; bovine serum albumin; read-out: ATP IC50 (W2), cholesterol media with BSA
Parameter measured: pIC50
Bear in mind: pIC50 is minus log10 of a mol/L concentration; give just that figure.

Form field pIC50, entry "COc1ccc(CNc2ccc(Cc3ccncc3)cc2)cc1" : 5.64

====

# Subject of test: UniProt P9WPP1
# Method: LC-MS substrate turnover assay (cholest-4-en-3-one)
# Assay type: biochemical
# Condition set: one bound given for both enzymes; read-out: KI, enzyme activity in vitro (CYP125/142)
pKi: −log10 of the molar value.
Parameter measured: pKi

Form field pKi, entry COc1ccc(CNc2ccc(Cc3ccncc3)cc2)cc1 [5m] : > 7.00

====

Here, each record is paired with measured pIC50 data.
# Subject of test: CYP2C9 (Homo sapiens)
# Sequence (P11712 whole entry): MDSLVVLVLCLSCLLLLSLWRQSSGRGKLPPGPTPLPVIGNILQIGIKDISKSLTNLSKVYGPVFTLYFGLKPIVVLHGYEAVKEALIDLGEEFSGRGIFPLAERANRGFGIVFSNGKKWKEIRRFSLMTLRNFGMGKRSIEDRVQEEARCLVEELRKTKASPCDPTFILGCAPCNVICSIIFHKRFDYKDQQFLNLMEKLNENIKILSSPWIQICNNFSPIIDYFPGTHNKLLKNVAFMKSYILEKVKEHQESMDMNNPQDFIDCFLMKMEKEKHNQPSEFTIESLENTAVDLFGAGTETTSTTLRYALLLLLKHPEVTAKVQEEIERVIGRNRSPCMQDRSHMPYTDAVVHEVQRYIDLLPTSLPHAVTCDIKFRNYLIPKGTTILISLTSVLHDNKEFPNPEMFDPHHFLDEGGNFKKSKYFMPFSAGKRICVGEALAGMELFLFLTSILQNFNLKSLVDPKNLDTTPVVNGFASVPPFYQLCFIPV
Bear in mind: pIC50 is minus log10 of a mol/L concentration; give just that figure.

COc1ccc(CNc2ccc(Cc3ccncc3)cc2)cc1 5.73
O=S(=O)(Nc1ccc(Cc2ccncc2)cc1)c1ccc(OC(F)(F)F)cc1 5.28

Form field pIC50, entry "O=C(Nc1ccc(Cc2ccncc2)cc1)[C@H](Cc1c[nH]c2ccccc12)NCc1ccccc1" : 6.85

====

Here, each record is paired with measured Δλmax (nm) CYP124, fragment screen data.
# Subject of test: CYP124 (Mycobacterium tuberculosis, UniProt P9WPP3)
# Sequence (P9WPP3 whole entry, the tested form may be a part): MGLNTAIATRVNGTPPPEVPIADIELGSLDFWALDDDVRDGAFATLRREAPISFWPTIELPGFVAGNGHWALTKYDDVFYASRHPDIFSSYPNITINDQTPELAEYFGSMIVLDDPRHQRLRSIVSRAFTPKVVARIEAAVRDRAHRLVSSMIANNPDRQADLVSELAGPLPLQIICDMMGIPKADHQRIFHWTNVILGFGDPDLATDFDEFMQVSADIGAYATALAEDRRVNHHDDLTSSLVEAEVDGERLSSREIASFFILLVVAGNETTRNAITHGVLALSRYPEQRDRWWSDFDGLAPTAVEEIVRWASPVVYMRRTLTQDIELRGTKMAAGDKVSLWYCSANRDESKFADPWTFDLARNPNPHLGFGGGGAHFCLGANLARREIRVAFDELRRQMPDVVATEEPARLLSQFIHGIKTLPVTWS
# Condition set: fragment 1 mM, P450 4-6 µM; relative to DMSO (419 nm)
Use nm as the unit, but write only the number.

Example compounds with recorded Δλmax (nm) CYP124, fragment screen:
O=[N+]([O-])c1ccc(Br)c2ccncc12 1
c1ccc(-c2cc[nH]n2)cc1 -1
O=C(O)CCc1nc2ccccc2[nH]1 0
Clc1cccnc1Cl 0

Field Δλmax (nm) CYP124, fragment screen (system: CYP124 (Mycobacterium tuberculosis, UniProt P9WPP3)) for entry "Cc1cc(N)n(-c2ccccc2)n1" = 0

Field Δλmax (nm) CYP124, fragment screen (system: CYP124 (Mycobacterium tuberculosis, UniProt P9WPP3)) for entry "OCc1ccc(Br)cn1" = 0

====

# Subject of test: CYP142 (Mycobacterium tuberculosis, UniProt P9WPL5)
# Sequence (P9WPL5 whole entry): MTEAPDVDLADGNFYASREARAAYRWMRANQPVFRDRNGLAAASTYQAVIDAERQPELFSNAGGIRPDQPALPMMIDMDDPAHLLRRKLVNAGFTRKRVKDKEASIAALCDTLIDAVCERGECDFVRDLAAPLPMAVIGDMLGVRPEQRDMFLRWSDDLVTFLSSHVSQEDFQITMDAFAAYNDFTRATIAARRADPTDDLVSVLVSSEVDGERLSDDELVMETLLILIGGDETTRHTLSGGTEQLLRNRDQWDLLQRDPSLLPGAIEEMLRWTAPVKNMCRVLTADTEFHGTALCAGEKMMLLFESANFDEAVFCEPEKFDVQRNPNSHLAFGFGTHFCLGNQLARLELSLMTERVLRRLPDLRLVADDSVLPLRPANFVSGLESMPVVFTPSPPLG
Parameter measured: Kd (nM)
Use nM as the unit, but write only the number.

Field Kd (system: CYP142 (Mycobacterium tuberculosis, UniProt P9WPL5)) for entry COc1ccc(CNc2ccc(Cc3ccncc3)cc2)cc1 [5m] = 80

====

# Subject of test: CYP143 (Mycobacterium tuberculosis)
# Condition set: fragment 1 mM, P450 4-6 µM; relative to DMSO (416 nm)
Parameter measured: Δλmax (nm) CYP143, fragment screen
Use nm as the unit, but write only the number.

Example molecules with recorded Δλmax (nm) CYP143, fragment screen:
Cc1n[nH]cc1Br 0
O=C(O)CCc1ccccc1 1
Clc1ncccc1Br 0.5
Nn1cccc1C(=O)O 4
Cc1cc(C)n(-c2ccc(N)cc2)n1 0.5
Nc1cccnc1N 0
Nc1ccc(Oc2ccccc2)nc1 0.5
Clc1ccc(Cl)nn1 0.5

Form field Δλmax (nm) CYP143, fragment screen, entry "Nc1cccnc1O" : 0

Form field Δλmax (nm) CYP143, fragment screen, entry "Nc1ccncc1" : 0

Form field Δλmax (nm) CYP143, fragment screen, entry "O=C(O)c1cccc(-c2cccnc2)c1" : 1

Form field Δλmax (nm) CYP143, fragment screen, entry "Cc1cc(N)n(-c2ccccc2)n1" : 0.5

Form field Δλmax (nm) CYP143, fragment screen, entry "Clc1nccc2ccccc12" : -0.5

====

# Subject of test: CYP125 (Mycobacterium tuberculosis, UniProt P9WPP1)
# Sequence (P9WPP1 whole entry): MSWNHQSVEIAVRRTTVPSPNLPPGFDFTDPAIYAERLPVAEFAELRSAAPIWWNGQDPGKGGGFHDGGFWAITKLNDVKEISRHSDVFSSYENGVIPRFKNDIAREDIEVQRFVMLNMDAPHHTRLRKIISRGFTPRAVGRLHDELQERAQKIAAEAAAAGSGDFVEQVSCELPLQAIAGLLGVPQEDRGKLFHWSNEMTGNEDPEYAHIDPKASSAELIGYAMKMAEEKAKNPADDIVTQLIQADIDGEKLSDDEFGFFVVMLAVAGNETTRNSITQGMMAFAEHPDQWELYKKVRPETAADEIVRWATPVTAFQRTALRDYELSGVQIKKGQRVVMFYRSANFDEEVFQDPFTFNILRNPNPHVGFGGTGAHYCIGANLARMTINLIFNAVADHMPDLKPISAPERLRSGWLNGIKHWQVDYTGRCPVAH
# Format: binding
# Condition set: compound 100 µM, P450 5 µM; ratio of low spin to high spin CYP125
Here, each record is paired with measured CYP125 LS/HS data.
API doc: respond with a numeric literal and nothing else, no unit.

Example molecules with recorded CYP125 LS/HS:
Molecule	CYP125 LS/HS
Brc1ccc(Nc2ccncc2)cc1	1.2
Nc1ccc(Nc2ccncc2)cc1	1.3
c1ccc(CCc2ccncc2)cc1	1
c1ccc(Oc2ccncc2)cc1	1

Form field CYP125 LS/HS, entry C(=C\c1ccncc1)/c1ccccc1 [2g, (E)-4-Styrylpyridine] : 1.4

Form field CYP125 LS/HS, entry "Nc1cccc(Nc2ccncc2)c1" : 0.9

Form field CYP125 LS/HS, entry "Brc1cccc(Nc2ccncc2)c1" : 1.4

Form field CYP125 LS/HS, entry "COc1ccc(Cc2ccncc2)cc1" : 1

Form field CYP125 LS/HS, entry "CN(c1ccccc1)c1ccncc1" : 0.9

====

# Subject of test: CYP121 (Mycobacterium tuberculosis)
# Sequence (P9WPP7 whole entry, the tested form may be a part): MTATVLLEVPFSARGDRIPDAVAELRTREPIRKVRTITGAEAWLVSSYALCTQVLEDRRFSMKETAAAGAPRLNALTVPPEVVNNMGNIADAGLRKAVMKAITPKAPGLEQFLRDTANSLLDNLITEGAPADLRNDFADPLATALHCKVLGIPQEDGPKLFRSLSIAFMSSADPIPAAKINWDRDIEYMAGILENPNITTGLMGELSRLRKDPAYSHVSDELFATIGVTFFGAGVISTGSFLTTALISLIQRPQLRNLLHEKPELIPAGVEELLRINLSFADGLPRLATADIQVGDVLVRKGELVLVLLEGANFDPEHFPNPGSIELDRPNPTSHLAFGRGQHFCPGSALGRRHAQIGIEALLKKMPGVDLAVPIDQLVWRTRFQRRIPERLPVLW
# Condition set: fragment 1 mM, P450 4-6 µM; relative to DMSO (417 nm)
Parameter measured: Δλmax (nm) CYP121, fragment screen
Answer with the figure and its unit, nothing else.

Cc1cc(C(=O)O)[nH]n1 0 nm
OCc1ccc(Br)cn1 0 nm
Nc1cc(Cl)nc(Cl)c1 0 nm
Cc1ccc(S(N)(=O)=O)nc1 0 nm
COc1ncccc1C(=O)O 0 nm

Form field Δλmax (nm) CYP121, fragment screen, entry "Cc1n[nH]cc1Br" : 0 nm

Form field Δλmax (nm) CYP121, fragment screen, entry "O=C(O)c1ccnn1-c1ccccc1" : -1 nm

Form field Δλmax (nm) CYP121, fragment screen, entry "Cc1ccc(=O)[nH]n1" : 0 nm

Form field Δλmax (nm) CYP121, fragment screen, entry "CNCc1ccc(-c2ccncc2)cc1" : -1 nm

Form field Δλmax (nm) CYP121, fragment screen, entry "Clc1nccc2ccc(Br)cc12" : -3 nm

Form field Δλmax (nm) CYP121, fragment screen, entry "COc1ncccc1N" : 0 nm

Form field Δλmax (nm) CYP121, fragment screen, entry "CNCc1cccc(-c2ccccc2)c1" : 0 nm

Form field Δλmax (nm) CYP121, fragment screen, entry "Cn1nc(C(=O)O)cc1-c1ccccc1" : 0 nm

Form field Δλmax (nm) CYP121, fragment screen, entry "c1ccc(-c2c[nH]cn2)cc1" : 0 nm

Form field Δλmax (nm) CYP121, fragment screen, entry "O=C(O)c1cccc(O)n1" : 0 nm

Provenance of the data: paper PMC12305662
